Source of measurements: the Immune Epitope Database (IEDB)

- target-under-test: HLA-A*69:01
- assay-info: IEDB peptide-MHC binding, purified MHC/direct/fluorescence; filed as Kd, often an IC50 or EC50 that approximates it; bounds were set here for any values at or beyond the usual limits of such assays
- test-parameters: source organism: Giardia lamblia ATCC 50803
Recorded Kd for the following sequences

TTIEDILPK	≥ 20 µM

Prompt line: Return reported Kd; argument: RHIAIQVCY
Response line: ≥ 20 µM

Prompt line: Queued: AEFPVGSTA
Response line: ≥ 20 µM

---

- target-under-test: HLA-A*03:01
- assay-info: IEDB peptide-MHC binding, purified MHC/direct/fluorescence; filed as Kd, often an IC50 or EC50 that approximates it; bounds were set here for any values at or beyond the usual limits of such assays
- test-parameters: source organism: Influenza A virus (A/swine/Korea/S190/2004(H9N2))
value-kind: Kd

Prompt line: Return reported Kd; argument: IPKRNRSIL
Response line: ≥ 20 µM

---

- target-under-test: HLA-A*68:02
- assay-info: IEDB peptide-MHC binding, purified MHC/competitive/fluorescence; filed as Kd, often an IC50 or EC50 that approximates it; bounds were set here for any values at or beyond the usual limits of such assays
- test-parameters: source organism: Giardia lamblia ATCC 50803
value-kind: Kd (µM)
Kindly answer with a numeric value in µM, unit omitted.

Prompt line: Return reported Kd; argument: FMKVKFEAL
Response line: 4.62

---

- target-under-test: HLA-B*15:01
- assay-info: IEDB peptide-MHC binding, purified MHC/direct/fluorescence; filed as Kd, often an IC50 or EC50 that approximates it; bounds were set here for any values at or beyond the usual limits of such assays
- test-parameters: source organism: Influenza A virus (A/Puerto Rico/8/34/Mount Sinai(H1N1))
Recorded Kd for the following sequences

KMARLGKGY	178 nM

Prompt line: Return reported Kd; argument: HFQKDAKVL
Response line: 2660 nM

---

- target-under-test: HLA-A*01:01
- assay-info: IEDB peptide-MHC binding, purified MHC/direct/fluorescence; filed as Kd, often an IC50 or EC50 that approximates it; bounds were set here for any values at or beyond the usual limits of such assays
- test-parameters: source organism: Corynebacterium diphtheriae
pKd: −log10 of the molar value.
value-kind: pKd

Prompt line: Return reported pKd; argument: VERRLVKVL
Response line: ≤ 4.70

---

- target-under-test: HLA-B*08:01
- assay-info: IEDB peptide-MHC binding, purified MHC/competitive/radioactivity; filed as Kd, often an IC50 or EC50 that approximates it; bounds were set here for any values at or beyond the usual limits of such assays
- test-parameters: source organism: Vaccinia virus WR
Hi! Could you tag entries with Kd below 3 nM as label 1, and those at or above as label 0? Much appreciated.

These solved cases illustrate the format of a correct answer.
SPMPRHHSI	label 0
FIYLLFASM	label 0
RSHIRKPPS	label 0

Prompt line: Given the entry MIKIALSVA , would its reported Kd be below 3 nM?
Response line: label 0

Prompt line: Queued: ELDLHFQRI
Response line: label 0

---

- target-under-test: HLA-A*02:19
- assay-info: IEDB peptide-MHC binding, purified MHC/direct/fluorescence; filed as Kd, often an IC50 or EC50 that approximates it; bounds were set here for any values at or beyond the usual limits of such assays
- test-parameters: source organism: Campylobacter jejuni
pKd: −log10 of the molar value.
value-kind: pKd

Prompt line: Return reported pKd; argument: SFWFFHPPY
Response line: ≤ 4.70
